- TEST TARGET: thioredoxin reductase 1 (TXNRD1) (Rattus norvegicus, UniProt O89049)
- Construct: recombinant rat TXNRD1, wild-type
- Sequence (O89049 whole entry): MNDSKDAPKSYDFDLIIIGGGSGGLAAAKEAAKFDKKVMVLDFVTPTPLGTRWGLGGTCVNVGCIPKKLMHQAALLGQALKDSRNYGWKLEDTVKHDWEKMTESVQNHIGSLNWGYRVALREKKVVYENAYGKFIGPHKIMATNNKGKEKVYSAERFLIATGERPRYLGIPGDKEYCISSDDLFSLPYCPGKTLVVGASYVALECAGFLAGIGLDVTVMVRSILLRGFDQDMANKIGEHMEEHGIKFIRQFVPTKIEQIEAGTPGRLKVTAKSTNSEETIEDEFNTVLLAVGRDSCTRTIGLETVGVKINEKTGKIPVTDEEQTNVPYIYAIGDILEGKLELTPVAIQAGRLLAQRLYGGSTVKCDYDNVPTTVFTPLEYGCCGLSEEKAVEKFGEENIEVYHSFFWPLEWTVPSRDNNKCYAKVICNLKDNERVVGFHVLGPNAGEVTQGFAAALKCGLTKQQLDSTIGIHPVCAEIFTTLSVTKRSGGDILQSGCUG
- PROTOCOL DESCRIPTION: DTNB reduction assay after […] h incubation; desalting shows irreversibility
ENDPOINT LABEL: pIC50
pIC50 here: minus log base 10 of the concentration, concentration in moles per litre.

COc1ccc2c(c[n+](C)c3c4cc5c(cc4ccc23)OCO5)c1OC | 4.18

Then this molecule:
According to the records, this molecule C[n+]1cc2c3c(ccc2c2ccc4cc5c(cc4c21)OCO5)OCO3 displays pIC50 of 4.33
